# System: UACC-257
# protocol summary: NCI tumour cell line growth inhibition, 48 h
Active and inactive are the calls of the source. Rule as the data show it: active = GI50 up to about 1.1 µM and inactive = higher.
One label from this list, please: active, inactive

Below, 5 compounds whose answers are already recorded.
{"compound": "CC1(C)O[C@@H]2[C@@H]3OC(=O)C[C@@H]3[C@@H](COCc3ccccc3)[C@@H]2O1", "discrete label": "inactive"}
{"compound": "COC(=O)C1=CC(=O)OC1(OO)c1ccccc1 (centres undefined)", "discrete label": "inactive"}
{"compound": "CC(=O)OC1OC2C(NC(=O)OC(C)(C)C)C1CC2(OCc1ccccc1)OCc1ccccc1 (centres undefined)", "discrete label": "inactive"}
{"compound": "Oc1cc(-c2cccc(OC(F)(F)F)c2)nc2ccc(N3CCCC3)cc12", "discrete label": "active"}
{"compound": "Cc1ccc(/N=N\\c2c(O)ccc3cc(S(=O)(=O)O)ccc23)cc1", "discrete label": "inactive"}

Challenge: In this assay, the call recorded for `COC1=CC(=O)c2c(c(O)c3oc4cc(OC)cc(C)c4c(=O)c3c2O)C1=O` was what?
Response given: inactive

Challenge: In this assay, the call recorded for `CN1CCN(c2c(Cl)cc(Cl)c3[nH]c4ccccc4c(=O)c23)CC1` was what?
Response given: inactive

Challenge: In this assay, the call recorded for `COC(=O)c1nc(N)nc(O)c1-c1ccc(Cl)cc1` was what?
Response given: inactive

Challenge: In this assay, the call recorded for `Cc1nc2cc(Cl)c(N)cc2[nH]1` was what?
Response given: inactive
